Data credit: patent US20260184782A1

Target: T1, recombinant human TIGIT (human, UniProt Q495A1 22-141, limits assumed)
T1 construct: also called T cell immunoreceptor with Ig and ITIM domains
T1 sequence (looked up): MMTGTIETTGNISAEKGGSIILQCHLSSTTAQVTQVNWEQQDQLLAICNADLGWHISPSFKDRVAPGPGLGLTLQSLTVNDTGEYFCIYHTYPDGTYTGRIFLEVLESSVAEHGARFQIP
Experiment: SPR (Carterra), average

- Binder: "TIGIT-SC138 (Fc fusion, VHH-Fc) VHH: EVQLVESGGGLVQPGGSLRLSCAASGFTLENNMMGWFRQAPGKGREFVAAISRSGTLKAYADSVKGRFTISADNSKNTAYLQMNSLKPEDTAVYYCARVRYYYDSSGYFFWFDLWGQGTLVTVSS"
  Quantity unit: "M⁻¹ s⁻¹"
  kon: 49700
- Binder: "TIGIT-SC210 (Fc fusion, VHH-Fc) VHH: EVQLVESGGGLVQPGGSLRLSCAASGFLFDSYWMVWFRQAPGKEREFVAAIWRSGTLKAYADSVKGRFTISADNSKNTAYLQMNSLKPEDTAVYYCARDHRAMVAPFDYWGQGTLVTVSS"
  Quantity unit: "M⁻¹ s⁻¹"
  kon: 40700
- Binder: "TIGIT-SC135 (Fc fusion, VHH-Fc) VHH: EVQLVESGGGLVQPGGSLRLSCAASGFAFGDSWMGWFRQAPGKEREWVASVLRGGTLRAYAVSVKGRFTISADNSKNAAYLQMNSLKPEDTAVYYCARASIVGTTTLVWGQGTLVTVSS"
  Quantity unit: "M⁻¹ s⁻¹"
  kon: 126000
- Binder: "TIGIT-SC196 (Fc fusion, VHH-Fc) VHH: EVQLVESGGGLVQPGGSLRLSCAASGFAFSSDWMGWFRQAPGKEREWVASVLRGGYTWYADSVKGRFTISADNSKNTAYLQMNSLKPEDTAVYYCATEGLGYWGQGTLVTVSS"
  Quantity unit: "M⁻¹ s⁻¹"
  kon: 143
